- targetOrSystem: human BChE (Homo sapiens)
- Construct: gift of Dr. F. Nachon (Département de Toxicologie, Armed Forces Biomedical Research Institute, France)
- Sequence (P06276 29-602): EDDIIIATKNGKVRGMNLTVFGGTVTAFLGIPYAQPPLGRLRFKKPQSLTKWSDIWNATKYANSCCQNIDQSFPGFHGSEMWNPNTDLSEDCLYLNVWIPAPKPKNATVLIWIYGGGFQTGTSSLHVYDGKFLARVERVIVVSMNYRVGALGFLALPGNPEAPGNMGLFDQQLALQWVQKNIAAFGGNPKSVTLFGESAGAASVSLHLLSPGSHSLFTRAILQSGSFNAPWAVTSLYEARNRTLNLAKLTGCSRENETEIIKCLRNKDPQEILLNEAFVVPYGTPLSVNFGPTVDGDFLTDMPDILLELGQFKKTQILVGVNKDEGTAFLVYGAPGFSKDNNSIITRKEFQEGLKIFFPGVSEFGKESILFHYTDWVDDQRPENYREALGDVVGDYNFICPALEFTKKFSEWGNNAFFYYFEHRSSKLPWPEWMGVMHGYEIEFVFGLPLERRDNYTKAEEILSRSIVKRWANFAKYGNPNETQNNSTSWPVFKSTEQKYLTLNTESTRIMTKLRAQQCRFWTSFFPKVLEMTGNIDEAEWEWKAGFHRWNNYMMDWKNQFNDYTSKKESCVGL
- testDetails: Reversible inhibition of human BChE, Ellman method with ATCh, Hunter-Downs analysis
- Assay type: biochemical
- setupConditions: enzyme-substrate (ATCh) dissociation constant derived from the inhibition kinetics with the compound
property: BChE Ks (mM)
// units = mM; emit number, no label

Below: 8 molecules and their reported BChE Ks.
>  <molecule>
C=CC1C[N+]2(Cc3cccc([N+](=O)[O-])c3)CCC1CC2C(O)c1ccnc2ccccc12 (stereo not drawn) [CN-(mNO2)]

>  <BChE Ks (mM)>
0.35

$$$$
>  <molecule>
C=CC1C[N+]2(Cc3ccc([N+](=O)[O-])cc3)CCC1CC2C(O)c1ccnc2ccccc12 (stereo not drawn) [CD-(pNO2)]

>  <BChE Ks (mM)>
0.38

$$$$
>  <molecule>
C=C[C@H]1CN2CC[C@H]1C[C@H]2[C@H](O)c1ccnc2ccccc12 [CD, cinchonidine, reference compound]

>  <BChE Ks (mM)>
0.25

$$$$
>  <molecule>
C=CC1C[N+]2(Cc3ccccc3)CCC1CC2C(O)c1ccnc2ccccc12 (stereo not drawn) [CD-Bzl]

>  <BChE Ks (mM)>
0.27

$$$$
>  <molecule>
C=CC1C[N+]2(Cc3ccc(Br)cc3)CCC1CC2C(O)c1ccnc2ccccc12 (stereo not drawn) [CN-(pBr)]

>  <BChE Ks (mM)>
0.44

$$$$
>  <molecule>
C=CC1C[N+]2(Cc3ccc(Cl)cc3)CCC1CC2C(O)c1ccnc2ccccc12 (stereo not drawn) [CD-(pCl)]

>  <BChE Ks (mM)>
0.42

$$$$
>  <molecule>
C=CC1C[N+]2(Cc3ccc(C)cc3)CCC1CC2C(O)c1ccnc2ccccc12 (stereo not drawn) [CD-(pCH3)]

>  <BChE Ks (mM)>
0.38

$$$$
>  <molecule>
C=CC1C[N+]2(Cc3ccc(C)cc3)CCC1CC2C(O)c1ccnc2ccccc12 (stereo not drawn) [CN-(pCH3), N-(4-methylbenzyl) cinchoninium bromide]

>  <BChE Ks (mM)>
0.33

$$$$

Given the entry C=CC1C[N+]2(Cc3cccc(Cl)c3)CCC1CC2C(O)c1ccnc2ccccc12 (stereo not drawn) [CD-(mCl)] , report its measured BChE Ks.
0.53

Given the entry C=CC1C[N+]2(Cc3cccc(C)c3)CCC1CC2C(O)c1ccnc2ccccc12 (stereo not drawn) [CD-(mCH3)] , report its measured BChE Ks.
0.52

Given the entry C=CC1C[N+]2(Cc3cccc(Cl)c3)CCC1CC2C(O)c1ccnc2ccccc12 (stereo not drawn) [CN-(mCl)] , report its measured BChE Ks.
0.63

Given the entry C=CC1C[N+]2(C)CCC1CC2C(O)c1ccnc2ccccc12 (stereo not drawn) [CD-Met] , report its measured BChE Ks.
0.70

Given the entry C=C[C@H]1C[N@@]2CC[C@H]1C[C@@H]2[C@@H](O)c1ccnc2ccccc12 [CN, cinchonine, reference compound] , report its measured BChE Ks.
0.50

Given the entry C=CC1C[N+]2(Cc3cccc(Br)c3)CCC1CC2C(O)c1ccnc2ccccc12 (stereo not drawn) [CD-(mBr), N-(3-bromobenzyl) cinchonidinium bromide] , report its measured BChE Ks.
0.50

Given the entry C=CC1C[N+]2(Cc3ccc([N+](=O)[O-])cc3)CCC1CC2C(O)c1ccnc2ccccc12 (stereo not drawn) [CN-(pNO2)] , report its measured BChE Ks.
0.32
